- measurement_description: Concentration in serum after oral administration to rats
- assay_context: rat, 20 mg/kg
value_kind: concentration at 3 h (ng/mL)

Worked examples, 5 compounds total:
CCC1CCCCN1c1ccc2nc3c4c5c6c(C)c(O)c4c(=O)c(c-3oc2c1)NC(=O)C(C)=CC=CC(C)C(O)C(C)C(O)C(C)C(OC(C)=O)C(C)C(OC)C=COC(C)(O6)C5=O (stereo not shown) | 6600
COC1C=COC2(C)Oc3c(C)c(O)c4c(=O)c(c5oc6cc(N7CCCCCC7)ccc6nc-5c4c3C2=O)NC(=O)C(C)=CC=CC(C)C(O)C(C)C(O)C(C)C(OC(C)=O)C1C (stereo not shown) | 5700
CCOCCN(CCOCC)c1ccc2nc3c4c5c6c(C)c(O)c4c(=O)c(c-3oc2c1)NC(=O)C(C)=CC=CC(C)C(O)C(C)C(O)C(C)C(OC(C)=O)C(C)C(OC)C=COC(C)(O6)C5=O (stereo not shown) | 5400
COC1C=COC2(C)Oc3c(C)c(O)c4c(=O)c(c5oc6cc(N7CCCCC7)ccc6nc-5c4c3C2=O)NC(=O)C(C)=CC=CC(C)C(O)C(C)C(O)C(C)C(O)C1C (stereo not shown) | 2400
CCCN(CCC)c1ccc2nc3c4c5c6c(C)c(O)c4c(=O)c(c-3oc2c1)NC(=O)C(C)=CC=CC(C)C(O)C(C)C(O)C(C)C(OC(C)=O)C(C)C(OC)C=COC(C)(O6)C5=O (stereo not shown) | 8500

a = COC1C=COC2(C)Oc3c(C)c(O)c4c(=O)c(c5oc6cc(N7CCCC(C)C7)ccc6nc-5c4c3C2=O)NC(=O)C(C)=CC=CC(C)C(O)C(C)C(O)C(C)C(OC(C)=O)C1C (stereo not shown)
b = COC1C=COC2(C)Oc3c(C)c(O)c4c(=O)c(c5oc6cc(N7CCC7)ccc6nc-5c4c3C2=O)NC(=O)C(C)=CC=CC(C)C(O)C(C)C(O)C(C)C(OC(C)=O)C1C (stereo not shown)
Challenge: Which is greater in concentration at 3 h, the first item a or the second item b ? // caller expects the label of the chosen entry
Response given: a
(a: 6100 ng/mL, b: 3700 ng/mL)

###

- measurement_description: Concentration in serum after oral administration to rats
- assay_context: rat, 20 mg/kg
value_kind: concentration at 5 h (ng/mL)

CCCN(CCC)c1ccc2nc3c4c5c6c(C)c(O)c4c(=O)c(c-3oc2c1)NC(=O)C(C)=CC=CC(C)C(O)C(C)C(O)C(C)C(OC(C)=O)C(C)C(OC)C=COC(C)(O6)C5=O (centres unmarked) [compound 4] | 2100
COC1C=COC2(C)Oc3c(C)c(O)c4c(=O)c(c5oc6cc(N7CCC7)ccc6nc-5c4c3C2=O)NC(=O)C(C)=CC=CC(C)C(O)C(C)C(O)C(C)C(OC(C)=O)C1C (centres unmarked) [compound 17] | 2500
COC1C=COC2(C)Oc3c(C)c(O)c4c(=O)c(c5oc6cc(N7CCCC7)ccc6nc-5c4c3C2=O)NC(=O)C(C)=CC=CC(C)C(O)C(C)C(O)C(C)C(O)C1C (centres unmarked) [compound 49] | 2800

A = COC1C=COC2(C)Oc3c(C)c(O)c4c(=O)c(c5oc6cc(N7CCCC(C)(C)C7)ccc6nc-5c4c3C2=O)NC(=O)C(C)=CC=CC(C)C(O)C(C)C(O)C(C)C(OC(C)=O)C1C (centres unmarked) [compound 27]
B = COC1C=COC2(C)Oc3c(C)c(O)c4c(=O)c(c5oc6cc(N7CCCC7)ccc6nc-5c4c3C2=O)NC(=O)C(C)=CC=CC(C)C(O)C(C)C(O)C(C)C(OC(C)=O)C1C (centres unmarked) [compound 18]
Challenge: Sorting ascending by concentration at 5 h, which comes first: A or B ? Lab log: write the label of the selected item as the result.
Response given: A
(A: 1700 ng/mL, B: 3400 ng/mL)

Where do these numbers come from? They come from patent US4690919A.
